test system: CCRIS mutagenicity, Ames/micronucleus/aberration tests; experiment: CCRIS mutagenicity studies; conditions: Test System: AMES SALMONELLA TYPHIMURIUM; Strain/Indicator: TA98; Metabolic Activation: RAT, LIVER, S-9, AROCLOR 1254; Method: STANDARD PLATE
The source made the active and inactive calls. No rule for the calls is given here.
Field 'call' accepts 1 = active, -1 = inactive

Request: Given `C=CC(=O)OCC(CC)(COC(=O)C=C)COC(=O)C=C` , state the outcome it received in this test.
Result: -1

Request: Given `Nc1ncnc2c1ncn2[C@@H]1O[C@H](CO)[C@@H](O)[C@H]1O` , state the outcome it received in this test.
Result: -1

Request: Given `Cc1c(N)cc([N+](=O)[O-])c(N)c1C` , state the outcome it received in this test.
Result: 1

Request: Given `Clc1ccc(Cl)nc1` , state the outcome it received in this test.
Result: -1

Request: Given `CC[n+]1c2ccccc2nc2ccccc21` , state the outcome it received in this test.
Result: 1

Request: Given `O=PO.O=PO.[Mn+2]` , state the outcome it received in this test.
Result: -1

Request: Given `Nc1ccc(/C=C/c2ccc(N)cc2)cc1` , state the outcome it received in this test.
Result: 1

* * *

tested on: CCRIS mutagenicity, Ames/micronucleus/aberration tests; test: CCRIS mutagenicity studies; details: End Point: IN VITRO CHROMOSOMAL ABERRATIONS; Test System: CHO CELLS; Metabolic Activation: RAT, LIVER, S-9, AROCLOR 1254
Activity calls are given as the source filed them. The rule behind the calls is not given here.
Field 'call' accepts active, inactive

Request: Given `BrC(Br)Br` , state the outcome it received in this test.
Result: inactive

Request: Given `Nc1cc([N+](=O)[O-])ccc1O` , state the outcome it received in this test.
Result: active

Request: Given `Nc1ccc([N+](=O)[O-])cc1O` , state the outcome it received in this test.
Result: active

Request: Given `CC1=CC(=O)CC(C)(C)C1` , state the outcome it received in this test.
Result: inactive

Request: Given `Cc1ccc(N=C=O)cc1N=C=O` , state the outcome it received in this test.
Result: inactive

Request: Given `CN(C)[C@@H]1C(=O)C(C(N)=O)=C(O)[C@@]2(O)C(=O)C3=C(O)c4c(O)cccc4[C@@](C)(O)[C@H]3[C@H](O)[C@@H]12` , state the outcome it received in this test.
Result: inactive

Request: Given `CCCCCCc1ccc(O)cc1O` , state the outcome it received in this test.
Result: inactive

Request: Given `C=CCOC(=O)c1ccccc1C(=O)OCC=C` , state the outcome it received in this test.
Result: active

* * *

tested on: CCRIS mutagenicity, Ames/micronucleus/aberration tests; test: CCRIS mutagenicity studies; conditions: Test System: AMES SALMONELLA TYPHIMURIUM; Strain/Indicator: TA100; Metabolic Activation: HAMSTER, LIVER, S-9, AROCLOR 1254; Method: STANDARD PLATE
The source made the active and inactive calls. No rule for the calls is given here.
Field 'call' accepts label 1 = active, label 0 = inactive

Request: Given CCCC(O)C(CC)CO (configuration not stated) , state the outcome it received in this test.
Result: label 0

Request: Given `CC(=O)Nc1ccc(S(=O)(=O)O)c2cc(S(=O)(=O)O)c(N=Nc3ccc(N=Nc4ccc(S(=O)(=O)O)cc4)c4ccc(S(=O)(=O)O)cc34)c(O)c12` , state the outcome it received in this test.
Result: label 0

Request: Given `Oc1ccc2c(c1)OCO2` , state the outcome it received in this test.
Result: label 0

Request: Given `O=C1Nc2ccc([N+](=O)[O-])cc2C1=O` , state the outcome it received in this test.
Result: label 1

Request: Given O=C1N=NC(=O)C2C=CC=CC12 (configuration not stated) , state the outcome it received in this test.
Result: label 0

Request: Given `FC(F)(F)c1ccc(Cl)cc1` , state the outcome it received in this test.
Result: label 0

Request: Given `C=C(C)C(=O)OCC(CC)(COC(=O)C(=C)C)COC(=O)C(=C)C` , state the outcome it received in this test.
Result: label 0

Request: Given `COc1ccc(-c2coc3cc(O)cc(O)c3c2=O)cc1` , state the outcome it received in this test.
Result: label 0

Request: Given `C[Si](C)(C)O[Si](C)(C)O[Si](C)(C)C` , state the outcome it received in this test.
Result: label 0

Request: Given `Cc1ccc(S(=O)(=O)NN)cc1` , state the outcome it received in this test.
Result: label 1

Request: Given `C=CC(=O)OCC(CC)(COC(=O)C=C)COC(=O)C=C` , state the outcome it received in this test.
Result: label 0

Request: Given `Clc1nnc(Cl)c2ccccc12` , state the outcome it received in this test.
Result: label 0
